Target: human TRPV1 (hTRPV1) (Homo sapiens)
Construct: host or cells: HEK (PrecisION hTRPV1-HEK recombinant cell line)
Assay: Evaluation of human pH inhibitory activity in hTRPV1-HEK recombinant cells
Format: cell-based
Conditions: inhibition of activation at final pH 6.0, test substance 3 μM
# key: entry, value: hTRPV1 pH (%, 3 μM)
Expressed in %, but write only the number.

Past entries and their recorded results:
structure string: CC(C)(C)C#Cc1nc(C(F)(F)F)ccc1/C=C/C(=O)Nc1cccc2[nH]c(=O)[nH]c12
measured result: 67.89
--
structure string: CCCN(CCC)c1nc(C(F)(F)F)ccc1/C=C/C(=O)Nc1cccc2[nH]c(=O)[nH]c12
measured result: 89.87
--
structure string: CCC1CCN(c2nc(C(F)(F)F)ccc2/C=C/C(=O)Nc2cccc3[nH]c(=O)[nH]c23)CC1
measured result: 86.72

Shifting focus to the compound that follows.
Which hTRPV1 pH (%, 3 μM) is reported for this compound? `CC1(c2nc(-c3cccc(Cl)c3)c(/C=C/C(=O)Nc3cccc4[nH]c(=O)[nH]c34)s2)CC1` 61.78

----------
Target: human TRPV1 (hTRPV1) (Homo sapiens)
Construct: host or cells: HEK (PrecisION hTRPV1-HEK recombinant cell line)
Assay: Evaluation of human pH inhibitory activity in hTRPV1-HEK recombinant cells
Format: cell-based
Conditions: inhibition of activation at final pH 6.0, test substance 3 μM
# key: entry, value: hTRPV1 pH (%, 3 μM)
Expressed in %, but write only the number.

structure string: O=C(/C=C/c1ccc(C(F)(F)F)nc1-c1ccco1)Nc1cccc2[nH]c(=O)[nH]c12
target or system: human TRPV1 (hTRPV1) (Homo sapiens)
observed property: hTRPV1 pH (%, 3 μM)
measured result: 100.46
--
structure string: CCN(CC)c1nc(C(F)(F)F)ccc1/C=C/C(=O)Nc1cccc2[nH]c(=O)[nH]c12
target or system: human TRPV1 (hTRPV1) (Homo sapiens)
observed property: hTRPV1 pH (%, 3 μM)
measured result: 76.92
--
structure string: CC(C)(C)c1cc(/C=C/C(=O)Nc2cccc3[nH]c(=O)[nH]c23)n(-c2cccc(Cl)c2)n1
target or system: human TRPV1 (hTRPV1) (Homo sapiens)
observed property: hTRPV1 pH (%, 3 μM)
measured result: 78.21

Which hTRPV1 pH (%, 3 μM) is reported for this molecule? `CC(C)COc1nc(C(F)(F)F)ccc1CCC(=O)Nc1cccc2[nH]c(=O)[nH]c12` 59.32

----------
Target: human TRPV1 (hTRPV1) (Homo sapiens, UniProt Q8NER1)
Sequence (Q8NER1 whole entry): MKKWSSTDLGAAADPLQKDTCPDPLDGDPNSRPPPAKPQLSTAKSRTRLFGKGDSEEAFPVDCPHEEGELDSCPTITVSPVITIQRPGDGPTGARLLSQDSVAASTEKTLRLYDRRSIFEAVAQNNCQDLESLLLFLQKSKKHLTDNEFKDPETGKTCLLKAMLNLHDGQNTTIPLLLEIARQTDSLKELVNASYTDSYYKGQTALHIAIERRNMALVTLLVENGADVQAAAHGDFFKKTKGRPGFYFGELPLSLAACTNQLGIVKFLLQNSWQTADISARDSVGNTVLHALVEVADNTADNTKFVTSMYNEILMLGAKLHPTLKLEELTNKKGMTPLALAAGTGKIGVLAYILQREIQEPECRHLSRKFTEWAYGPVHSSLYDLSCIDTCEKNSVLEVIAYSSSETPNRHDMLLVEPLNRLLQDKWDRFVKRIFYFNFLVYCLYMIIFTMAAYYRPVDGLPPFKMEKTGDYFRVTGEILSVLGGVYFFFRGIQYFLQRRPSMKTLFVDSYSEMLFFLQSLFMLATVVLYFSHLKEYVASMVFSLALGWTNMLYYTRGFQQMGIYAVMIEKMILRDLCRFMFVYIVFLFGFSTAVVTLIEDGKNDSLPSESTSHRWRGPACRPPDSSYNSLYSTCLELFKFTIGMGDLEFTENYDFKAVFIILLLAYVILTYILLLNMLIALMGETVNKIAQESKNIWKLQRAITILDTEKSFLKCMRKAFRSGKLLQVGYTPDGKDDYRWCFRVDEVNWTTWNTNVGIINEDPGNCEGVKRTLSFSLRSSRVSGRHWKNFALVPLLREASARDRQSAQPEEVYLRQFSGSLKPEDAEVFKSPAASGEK
Assay: Ca2+ influx assay, antagonism against capsaicin in hTRPV1-HEK recombinant cells
Conditions: capsaicin 10 nM as activator, Fluo4-NW fluorescence, read-out: hTRPV1 IC50 [cap]
observed property: pIC50
Note on pIC50: it is the negative log10 of concentration, concentration in mol/L.

compound: O=C(NCc1ccc(C(F)(F)F)nc1N1CCCC1)Nc1cccc2[nH]c(=O)[nH]c12 [Comparative Example 1, reference compound]
pIC50: 7.73

Which pIC50 is reported for this compound? `O=C(/C=C/c1ccc(C(F)(F)F)nc1-c1ccc(F)cc1)Nc1cccc2[nH]c(=O)[nH]c12` 7.96

Which pIC50 is reported for this compound? `O=C(/C=C/c1ccc(C(F)(F)F)cc1OCC1CC1)Nc1cccc2[nH]c(=O)[nH]c12` 7.71

Which pIC50 is reported for this compound? `O=C(/C=C/c1ccc(C2CC2)cc1OCC1CC1)Nc1cccc2[nH]c(=O)[nH]c12` 7.14

Which pIC50 is reported for this compound? `CCCCOc1nc(C(F)(F)F)ccc1/C=C/C(=O)Nc1cccc2[nH]c(=O)[nH]c12` 7.56

Which pIC50 is reported for this compound? `CC(C)c1cccc(-n2nc(C(F)(F)F)cc2/C=C/C(=O)Nc2cccc3[nH]c(=O)[nH]c23)c1` 7.38
